experimental-system: human ETB receptor (Homo sapiens, UniProt P24530)
Construct: expressed in transfected cells; host or cells: COS7 cells
Sequence (P24530 27-442): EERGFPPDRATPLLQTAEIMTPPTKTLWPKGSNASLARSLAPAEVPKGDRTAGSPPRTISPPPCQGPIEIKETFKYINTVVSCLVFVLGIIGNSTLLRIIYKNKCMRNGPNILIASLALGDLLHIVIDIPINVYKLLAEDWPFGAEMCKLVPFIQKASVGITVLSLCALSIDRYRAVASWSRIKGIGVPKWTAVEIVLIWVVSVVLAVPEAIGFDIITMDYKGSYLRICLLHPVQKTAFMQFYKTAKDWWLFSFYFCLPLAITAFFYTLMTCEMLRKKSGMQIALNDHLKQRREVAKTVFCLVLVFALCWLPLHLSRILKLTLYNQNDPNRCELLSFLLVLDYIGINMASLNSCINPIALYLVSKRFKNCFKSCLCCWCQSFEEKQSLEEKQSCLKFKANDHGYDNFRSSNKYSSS
assay-method-text: Endothelin binding inhibition, Binding Test #2: competition with 125I-ET-1 for ETB receptors on transfected COS7 cell membranes
condition-context: incubation at 24° C. (values marked †)
From the text: Compounds that are potential endothelin antagonists are identified by testing their ability to compete with ^125I-labeled ET-1 for binding to human ETA receptors or ETB receptors present on isolated cell membranes. The effectiveness of the test compound as an antagonist or agonist of the biological tissue response of endothelin can also be assessed by measuring the effect on endothelin induced contraction of isolated rat thoracic aortic rings. […]
observation-type: IC50 (µM)

| compound | sign-qualifier | data-value |
| --- | --- | --- |
| COc1ccc(CC(=O)c2sccc2S(=O)(=O)Nc2onc(C)c2Cl)cc1 | = | 10.1 |
| CC(=O)OCc1c(C)cc(C)c(NC(=O)c2sccc2S(=O)(=O)Nc2noc(C)c2Cl)c1C | = | 19.7 |
| Cc1ccccc1OC(=O)c1sccc1S(=O)(=O)Nc1onc(C)c1Br | = | 105 |
| CCc1oc2ccccc2c1S(=O)(=O)Nc1onc(C)c1Cl | = | 22 |
| Cc1noc(NS(=O)(=O)c2ccsc2C(=O)c2ccc3c(c2)OCO3)c1Br | = | 15 |
| Cc1noc(NS(=O)(=O)c2ccsc2C(=O)Nc2cc3c(cc2CCO)OCO3)c1Cl | = | 16.8 |
| Cc1noc(NS(=O)(=O)c2c(Cc3ccc(Cl)cc3)sc3ccccc23)c1C | = | 4.7 |
| Cc1ccc(C)c(CC(=O)c2sccc2S(=O)(=O)Nc2onc(C)c2Cl)c1 | = | 18 |
| Cc1noc(NS(=O)(=O)c2ccsc2C(=O)Nc2c(CC#N)cc3c(c2CC#N)OCO3)c1Cl | = | 25 |
| Cc1noc(NS(=O)(=O)c2ccsc2Cc2ccc3c(c2)OCO3)c1Br | = | 7.7 |
| Cc1noc(NS(=O)(=O)c2ccsc2C(=O)C(O)c2ccc3c(c2)OCO3)c1Cl (centres unmarked) | = | 30 |
| Cc1noc(NS(=O)(=O)c2ccsc2C(=O)Cc2ccc3c(c2)OCO3)c1Cl | = | 6.5 |
| Cc1cc2c(cc1C=CCc1sccc1S(=O)(=O)Nc1onc(C)c1Br)OCO2 | = | 3.28 |
| Cc1cc(C)cc(CC(=O)c2sccc2S(=O)(=O)Nc2onc(C)c2Cl)c1 | = | 17.7 |
| Cc1noc(NS(=O)(=O)c2ccsc2COc2ccc3c(c2)OCO3)c1Br | = | 6.61 |
| Cc1noc(NS(=O)(=O)c2ccsc2C(=O)NC(=O)c2ccc3c(c2)OCO3)c1Br | = | 37 |
| COc1cccc(CC(=O)c2sccc2S(=O)(=O)Nc2onc(C)c2Br)c1 | = | 19.1 |
| Cc1cc(C)c(CCc2sccc2S(=O)(=O)Nc2onc(C)c2Br)c(C)c1 | = | 1.23 |
| Cc1ccc(OC(=O)c2sccc2S(=O)(=O)Nc2onc(C)c2Cl)c(C)c1 | = | 68.5 |
| Cc1cccc(OC(=O)c2sccc2S(=O)(=O)Nc2onc(C)c2Br)c1 | = | 111 |
| Cc1noc(NS(=O)(=O)c2ccsc2C(=O)Nc2cccc(C(=O)O)c2)c1Br | > | 100 |
| COc1ccccc1Cc1sc2ccccc2c1S(=O)(=O)Nc1onc(C)c1Br | = | 2.2 |
| CCc1ccc(-c2ccsc2S(=O)(=O)Nc2onc(C)c2Br)cc1 | = | 43.9 |
| Cc1ccc(OCc2sccc2S(=O)(=O)Nc2onc(C)c2Br)cc1 | = | 15 |
| Cc1cc(C)c(CC(=O)c2sccc2S(=O)(=O)Nc2onc(C)c2Cl)c(C)c1 | = | 3.82 |
| Cc1cc(C)c(NC(=O)c2sccc2S(=O)(=O)Nc2onc(C)c2C)c(C)c1CO | = | 33.8 |
| Cc1noc(NS(=O)(=O)c2ccsc2C(=O)Oc2ccc3c(c2)OCO3)c1Cl | = | 7.4 |
| Cc1noc(NS(=O)(=O)c2c(Cc3ccc4c(c3)OCO4)sc3ccccc23)c1Br | = | 0.939 |
| Cc1ccc(OC(=O)c2sccc2S(=O)(=O)Nc2onc(C)c2Br)cc1 | = | 9.7 |
| Cc1cc(C)c(OC(=O)c2sccc2S(=O)(=O)Nc2onc(C)c2Br)c(C)c1 | = | 24.5 |
| Cc1noc(NS(=O)(=O)c2ccsc2C(=O)Cc2ccc3c(c2)OCO3)c1Br | = | 5.5 |
| COc1cc(C#N)c(NC(=O)c2sccc2S(=O)(=O)Nc2onc(C)c2Cl)cc1OC | = | 12.2 |
| Cc1noc(NS(=O)(=O)c2ccsc2C(=O)Nc2c(C)c(C)c(C)c(C)c2C)c1Cl | = | 31 |
| COc1ccc(Cc2sc3ccccc3c2S(=O)(=O)Nc2onc(C)c2Br)cc1OC | = | 2.94 |
| Cc1cc(C)c(NC(=O)c2sccc2S(=O)(=O)Nc2onc(C)c2Cl)c(-c2ccccc2)c1 | = | 29.5 |
| Cc1cc(C)c(NC(=O)c2sccc2S(=O)(=O)Nc2onc(C)c2Cl)c(C)c1 | = | 11.3 |
| Cc1cc(CCC(C)C)ccc1-c1ccsc1S(=O)(=O)Nc1onc(C)c1Br | = | 2.4 |
| Cc1noc(NS(=O)(=O)c2c(Cc3ccc(N(C)C)cc3)sc3ccccc23)c1Cl | = | 1.3 |
| Cc1cc2c(cc1CC(=O)c1sccc1S(=O)(=O)Nc1noc(C)c1Cl)OCO2 | = | 3.69 |
| Cc1ccc(C=CCc2ccsc2S(=O)(=O)Nc2onc(C)c2Br)c(C)c1 | = | 2.97 |
